target: Drosophila OR10a (Drosophila melanogaster, UniProt Q9VYZ1); construct: expressed in transfected cells; test: Calcium ion fluorescence (GCaMP6) assay, OR10a stable HEK293 cell line; type: cell-based; settings: OR10a cell line, VOC concentration 1 μM
Sequence (Q9VYZ1 whole entry, one chain of several, the tested form may be a part): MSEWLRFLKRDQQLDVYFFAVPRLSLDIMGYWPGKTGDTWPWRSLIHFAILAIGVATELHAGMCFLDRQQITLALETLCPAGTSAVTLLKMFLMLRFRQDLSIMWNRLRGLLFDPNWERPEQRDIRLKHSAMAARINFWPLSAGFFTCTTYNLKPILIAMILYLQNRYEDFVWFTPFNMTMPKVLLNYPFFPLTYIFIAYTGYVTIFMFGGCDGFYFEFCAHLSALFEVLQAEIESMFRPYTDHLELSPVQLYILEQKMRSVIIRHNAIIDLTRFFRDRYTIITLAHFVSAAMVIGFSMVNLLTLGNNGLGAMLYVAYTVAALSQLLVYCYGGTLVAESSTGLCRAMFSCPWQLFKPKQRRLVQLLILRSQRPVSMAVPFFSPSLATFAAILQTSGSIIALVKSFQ
Would you kindly list OR10a response (VUAA1-normalized) at 1 μM for each of these compounds?
The answer should be written as a number, with no unit following it.

Return reported OR10a response (VUAA1-normalized) at 1 μM; argument: Cc1cccc(C)c1
0.00

Return reported OR10a response (VUAA1-normalized) at 1 μM; argument: COC(=O)c1ccccc1 [methyl benzoate]
0.31

Return reported OR10a response (VUAA1-normalized) at 1 μM; argument: CCCCCCCCCCCCCC
0.11

Return reported OR10a response (VUAA1-normalized) at 1 μM; argument: Cc1ccc(C(C)C)cc1
0.00

Return reported OR10a response (VUAA1-normalized) at 1 μM; argument: CCCCCCCCCCC
0.00

Return reported OR10a response (VUAA1-normalized) at 1 μM; argument: COC(=O)c1ccccc1O [methyl salicylate]
0.49

Return reported OR10a response (VUAA1-normalized) at 1 μM; argument: C=C1CCC2(C(C)C)CC12 (centres unmarked)
0.00

Return reported OR10a response (VUAA1-normalized) at 1 μM; argument: Cc1ccc(C)cc1
0.00

Return reported OR10a response (VUAA1-normalized) at 1 μM; argument: CC1=CCC23CC1C(C)(C)C2CCC3C (centres unmarked)
0.00

Return reported OR10a response (VUAA1-normalized) at 1 μM; argument: CCCOC(C)=O [propyl acetate]
0.00

Return reported OR10a response (VUAA1-normalized) at 1 μM; argument: CCCCCOC(C)=O [pentyl acetate]
0.11

---

target: Drosophila OR85b (Drosophila melanogaster, UniProt Q9VHQ7); construct: expressed in transfected cells; test: Calcium ion fluorescence (GCaMP6) assay, OR85b stable HEK293 cell line; type: cell-based; details: OR85b cell line; cc. 10 µM; VUAA1-normalized response, mean of biological replicates
Sequence (Q9VHQ7 whole entry, one chain of several, the tested form may be a part): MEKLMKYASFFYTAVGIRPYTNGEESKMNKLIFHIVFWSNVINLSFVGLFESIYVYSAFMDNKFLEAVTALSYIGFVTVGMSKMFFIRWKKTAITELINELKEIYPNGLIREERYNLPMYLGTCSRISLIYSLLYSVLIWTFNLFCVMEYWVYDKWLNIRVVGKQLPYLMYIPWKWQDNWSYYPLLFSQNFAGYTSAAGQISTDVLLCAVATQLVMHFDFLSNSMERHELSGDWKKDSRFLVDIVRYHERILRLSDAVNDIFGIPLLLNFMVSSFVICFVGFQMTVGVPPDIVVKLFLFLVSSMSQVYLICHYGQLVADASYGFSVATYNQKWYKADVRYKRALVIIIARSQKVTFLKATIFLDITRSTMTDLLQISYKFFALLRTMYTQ
readout.name: Average response

Return reported Average response; argument: CC(=O)OCCC(C)C [isopentyl acetate]
0.07

Return reported Average response; argument: Cc1ccccc1C
0.03

Return reported Average response; argument: C=Cc1ccccc1
0.00

Return reported Average response; argument: Cc1ccc(C)c(C)c1
0.0741

Return reported Average response; argument: C=C(C)[C@H]1CC=C(C)CC1 [limonene]
0.09

Return reported Average response; argument: CC1=CCC[C@@]2(C)[C@@H]3CC[C@]12CC3(C)C [(−)-α-neoclovene]
0.00

Return reported Average response; argument: Cc1cccc(O)c1
0.0173

Return reported Average response; argument: CCCCC(C)O (centres unmarked)
0.00

Return reported Average response; argument: Cc1cccc(C)c1
0.00

Return reported Average response; argument: Cc1ccc(C)cc1
0.15

Return reported Average response; argument: CC(=O)c1ccccc1
0.00

Return reported Average response; argument: CCCC(O)CC (centres unmarked)
0.10

Return reported Average response; argument: OCCc1ccccc1
0.0758

Return reported Average response; argument: C=C1CCC2(C(C)C)CC12 (centres unmarked)
0.0439

Return reported Average response; argument: CCCCCCCO
0.00

Return reported Average response; argument: C=C(C)[C@H]1CC=C(C)CC1 [(R)-(+)-limonene]
0.03

Return reported Average response; argument: CCCCCCCCCCCCCC
0.0844

Return reported Average response; argument: CC/C=C\CCO
0.0426

Return reported Average response; argument: COC(=O)c1ccccc1O [methyl salicylate]
0.0263

Return reported Average response; argument: CCCCCC(O)CC (centres unmarked)
0.00

Return reported Average response; argument: Cc1ccccc1
0.07

Return reported Average response; argument: CCCCCCCCC(CO)CCCCCC (centres unmarked)
0.07

Return reported Average response; argument: C=C1CC/C=C(\C)CC[C@@H]2[C@@H]1CC2(C)C [(-)-trans-caryophyllene]
0.00

---

Would you kindly list activation at 100 µM for each of these compounds?
biological target: Drosophila OR49b (Drosophila melanogaster); construct: expressed in transfected cells; assay: cell-based; conditions: HEK293; 100 μM VOC; 50 μM VUAA1 = 1; read-out: OR49b Average response (VUAA1-normalized)
Sequence (Q9V6H2 whole entry, one chain of several, the tested form may be a part): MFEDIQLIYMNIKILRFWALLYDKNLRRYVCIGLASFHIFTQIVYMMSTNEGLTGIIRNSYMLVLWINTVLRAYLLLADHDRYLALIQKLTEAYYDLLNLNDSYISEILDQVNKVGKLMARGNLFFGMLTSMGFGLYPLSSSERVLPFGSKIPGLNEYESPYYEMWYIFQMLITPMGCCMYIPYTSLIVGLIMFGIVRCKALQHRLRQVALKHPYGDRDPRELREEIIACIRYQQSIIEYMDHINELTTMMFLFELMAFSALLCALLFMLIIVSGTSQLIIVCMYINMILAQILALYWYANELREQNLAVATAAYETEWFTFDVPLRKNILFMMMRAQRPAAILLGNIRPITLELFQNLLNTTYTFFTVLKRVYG
Answer format: numeric, % implied, no suffix.

Give Drosophila OR49b (Drosophila melanogaster) activation at 100 µM for Cc1ccc(O)cc1
44

Give Drosophila OR49b (Drosophila melanogaster) activation at 100 µM for Cc1cccc(O)c1
43

Give Drosophila OR49b (Drosophila melanogaster) activation at 100 µM for Cc1cccc(C)c1
27

Give Drosophila OR49b (Drosophila melanogaster) activation at 100 µM for Cc1ccc(C)cc1
38

---

target: Drosophila OR47a (Drosophila melanogaster); construct: expressed in transfected cells; test: Calcium ion fluorescence (GCaMP6) assay, OR47a stable HEK293 cell line; type: cell-based; conditions: OR47a cell line; odorant cc. 10 µM; mean of biological replicates
Would you kindly list Average response for each of these compounds?
The answer should be written as a number, with no unit following it.

Return reported Average response; argument: CCCCCC(O)CC (stereo not shown) [3-octanol]
0.00

Return reported Average response; argument: COc1cccc(OC)c1 [1,3-dimethoxy benzene]
0.00

Return reported Average response; argument: C=CC(O)C/C=C\CC (stereo not shown) [(5Z)-octa-1,5-dien-3-ol]
0.00

Return reported Average response; argument: C=C(C)[C@H]1CC=C(C)CC1 [(R)-(+)-limonene]
0.0529

Return reported Average response; argument: C=C1CCC2(C(C)C)CC12 (stereo not shown) [sabinene]
0.00

Return reported Average response; argument: COC(=O)c1ccccc1O [methyl salicylate]
0.00759

Return reported Average response; argument: CC(=O)c1ccccc1 [acetophenone]
0.00

---

target: Drosophila OR98a (Drosophila melanogaster); construct: expressed in transfected cells; experiment: Calcium ion fluorescence (GCaMP6) assay, OR98a stable HEK293 cell line; type: cell-based; conditions: concentration 100; normalized fluorescence change, values below 0.05 threshold given as 0
Sequence (Q9VAZ3 whole entry, one chain of several, the tested form may be a part): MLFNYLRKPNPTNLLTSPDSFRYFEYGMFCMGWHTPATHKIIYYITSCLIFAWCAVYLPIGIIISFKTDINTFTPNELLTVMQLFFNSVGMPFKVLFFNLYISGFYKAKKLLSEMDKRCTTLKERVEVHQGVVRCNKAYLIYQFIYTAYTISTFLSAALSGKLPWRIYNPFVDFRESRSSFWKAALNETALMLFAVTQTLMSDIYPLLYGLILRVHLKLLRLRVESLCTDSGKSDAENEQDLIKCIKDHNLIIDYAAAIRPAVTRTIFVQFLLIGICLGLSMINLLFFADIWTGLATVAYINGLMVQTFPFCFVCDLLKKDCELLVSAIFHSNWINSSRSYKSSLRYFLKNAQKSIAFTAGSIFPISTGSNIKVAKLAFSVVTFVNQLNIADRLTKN
Would you kindly list DF norm AVERAGE OR98a for each of these compounds?
The answer should be written as a number, with no unit following it.

Return reported DF norm AVERAGE OR98a; argument: Cc1ccc(C)c(C)c1
0.05229

Return reported DF norm AVERAGE OR98a; argument: CCCCCCCO
0

Return reported DF norm AVERAGE OR98a; argument: CCCCCC(C)=O
0.1149

---

target: Drosophila OR85b (Drosophila melanogaster); construct: expressed in transfected cells; assay: Calcium ion fluorescence (GCaMP6) assay, OR85b stable HEK293 cell line; format: cell-based; details: OR85b cell line; cc. 1 µM; VUAA1-normalized response, mean of biological replicates
readout.name: Average response

Return reported Average response; argument: CC1=CCC2C(C1)C2(C)C (stereo not shown)
0.00

Return reported Average response; argument: CCCCCCCCCCCCCC
0.10

Return reported Average response; argument: COC(=O)c1ccccc1 [methyl benzoate]
0.00

Return reported Average response; argument: CC1=CCC23CC1C(C)(C)C2CCC3C (stereo not shown)
0.10

Return reported Average response; argument: CCCCCC(=O)OCC [ethyl hexanoate]
0.00

Return reported Average response; argument: CCCC(O)CC (stereo not shown)
0.00

Return reported Average response; argument: C=CC(C)(O)CCC=C(C)C (stereo not shown)
0.045

---

target: Drosophila OR98a (Drosophila melanogaster); construct: expressed in transfected cells; test: Calcium ion fluorescence (GCaMP6) assay, OR98a stable HEK293 cell line; type: cell-based; conditions: OR98a cell line, VOC concentration 10 μM
readout.name: OR98a response (VUAA1-normalized) at 10 μM
The answer should be written as a number, with no unit following it.

Return reported OR98a response (VUAA1-normalized) at 10 μM; argument: OCCc1ccccc1
0.05

Return reported OR98a response (VUAA1-normalized) at 10 μM; argument: Cc1ccc(C(C)C)cc1
0.00

Return reported OR98a response (VUAA1-normalized) at 10 μM; argument: COC(=O)c1ccccc1O [methyl salicylate]
0.00

Return reported OR98a response (VUAA1-normalized) at 10 μM; argument: CCCCCCCCCCC
0.00

Return reported OR98a response (VUAA1-normalized) at 10 μM; argument: CC1=CCC23CC1C(C)(C)C2CCC3C (stereo not drawn)
0.09

Return reported OR98a response (VUAA1-normalized) at 10 μM; argument: CCCCCCCCCCCCCC
0.12

---

molecular target: Drosophila OR47a (Drosophila melanogaster, UniProt P81921); construct: expressed in transfected cells; experiment: Calcium ion fluorescence (GCaMP6) assay, OR47a stable HEK293 cell line; type: cell-based; conditions: OR47a cell line; odorant cc. 100 µM; mean of biological replicates
Sequence (P81921 whole entry): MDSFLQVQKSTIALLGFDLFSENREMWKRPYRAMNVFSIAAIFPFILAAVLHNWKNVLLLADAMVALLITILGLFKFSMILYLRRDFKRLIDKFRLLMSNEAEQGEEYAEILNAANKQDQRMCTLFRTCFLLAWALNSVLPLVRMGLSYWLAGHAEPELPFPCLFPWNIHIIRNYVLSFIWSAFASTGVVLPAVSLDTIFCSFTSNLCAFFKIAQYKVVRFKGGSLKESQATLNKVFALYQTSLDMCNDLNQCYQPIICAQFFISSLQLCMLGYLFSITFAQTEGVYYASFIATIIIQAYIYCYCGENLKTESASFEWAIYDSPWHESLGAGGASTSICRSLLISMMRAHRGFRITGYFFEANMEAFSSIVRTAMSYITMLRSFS
Sequence (Q9VNB5 whole entry partner): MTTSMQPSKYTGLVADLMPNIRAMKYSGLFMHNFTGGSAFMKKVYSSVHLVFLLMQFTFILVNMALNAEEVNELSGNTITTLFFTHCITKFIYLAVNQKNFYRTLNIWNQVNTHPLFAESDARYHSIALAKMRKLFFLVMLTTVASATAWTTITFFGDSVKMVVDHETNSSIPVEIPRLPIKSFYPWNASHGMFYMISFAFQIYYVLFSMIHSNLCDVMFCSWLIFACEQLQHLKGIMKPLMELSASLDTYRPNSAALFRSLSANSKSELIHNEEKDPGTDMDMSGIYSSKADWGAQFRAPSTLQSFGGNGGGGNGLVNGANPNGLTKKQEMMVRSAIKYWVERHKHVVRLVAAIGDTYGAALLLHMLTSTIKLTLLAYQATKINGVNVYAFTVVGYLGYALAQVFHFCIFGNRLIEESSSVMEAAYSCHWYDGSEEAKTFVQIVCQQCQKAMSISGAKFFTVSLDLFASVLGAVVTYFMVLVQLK
readout.name: Average response
The answer should be written as a number, with no unit following it.

Return reported Average response; argument: CCCCC(C)O (centres unmarked)
0.05

Return reported Average response; argument: CCCCCO
0.00

Return reported Average response; argument: CCCCCCCCCCC
0.00

Return reported Average response; argument: CC/C=C\CCO
0.10

Return reported Average response; argument: CC/C=C\CCOC(C)=O [z3-hexenyl acetate]
0.76

Return reported Average response; argument: COC(=O)c1ccccc1 [methyl benzoate]
0.06

Return reported Average response; argument: CC/C=C/CCO
0.14

Return reported Average response; argument: C=Cc1ccccc1
0.0286

Return reported Average response; argument: C=C1CCC2CC1C2(C)C (centres unmarked)
0.00

Return reported Average response; argument: Cc1cccc(O)c1
0.00

Return reported Average response; argument: CCc1ccccc1
0.00

Return reported Average response; argument: Cc1ccccc1C
0.00

Return reported Average response; argument: CCCCCC(O)CC (centres unmarked)
0.09

Return reported Average response; argument: Cc1ccc(O)cc1
0.0542
